Values were extracted from patent US20170165373A1.

Would you mind telling me the reported % Inhibition n=1 of each entry?
targetOrSystem: T1, human BCMA (huBCMA), full length, on cells (human, UniProt Q02223 1-184)
T1 construct: also called native huBCMA; B-cell maturation antigen
T1 chain: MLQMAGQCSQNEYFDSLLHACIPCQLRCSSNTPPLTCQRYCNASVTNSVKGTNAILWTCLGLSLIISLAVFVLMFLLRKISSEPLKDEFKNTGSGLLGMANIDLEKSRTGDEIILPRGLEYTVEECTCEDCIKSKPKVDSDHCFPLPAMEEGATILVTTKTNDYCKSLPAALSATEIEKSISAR
protocolText: APRIL blocking FACS
Parameters: concentration or dose not given beside the values
Numbers only, in %.

Below: 2 binders and their reported % Inhibition n=1.
Entry 33C7 (antibody, V domains shown, Tested as purified hybridoma IgG2 or IgG4; also called Ab-11; 33C7_HC#1) VH: EVQLLESGGALVQPGGSLRLSCAASGFTFSSYAMNWVRQAPGKGLEWVSAISVGGDTYYADSVKGRFTISRDNSKNTLYLHVNSLSAEDSAVYYCAKDQVTLVRGVWYYYGLDVWGQGTTVTVSS VL: VIVLIQSPLSLPVTPGEPASISCRSSQSLLHSNGNNYLDWYLQKPGQSPHLLISLGSNRTSGVPDRFSGSGSGTDFTLKISRVEAEDVGFYYCMQALQPPRRFGQGTKLEIKR — recorded % Inhibition n=1 = 68

Record 32B5 (antibody, V domains shown, 32B5.1 was purified hybridoma IgG2 or IgG4; later converted to human IgG1; also called Ab-10; 32B5.1) VH: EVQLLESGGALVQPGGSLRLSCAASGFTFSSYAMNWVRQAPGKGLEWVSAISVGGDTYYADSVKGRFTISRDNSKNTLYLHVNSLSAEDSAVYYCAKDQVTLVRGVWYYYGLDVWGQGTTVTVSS VL: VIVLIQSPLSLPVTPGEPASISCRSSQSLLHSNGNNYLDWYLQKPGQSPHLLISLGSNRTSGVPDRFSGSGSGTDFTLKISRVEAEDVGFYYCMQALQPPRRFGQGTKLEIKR . Reported % Inhibition n=1: 87

More entries:
37B2 (antibody, V domains shown, Tested as purified hybridoma IgG2 or IgG4; also called Ab-16; 37B2.1) VH: EVQLLESGGALVQPGGSLRLSCAASGFTFSNYAMNWVRQAPGKGLEWVSAISVGGDTYYADSVKGRFTISRDNSKNTLYLHVNSLSAEDSAVYYCAKDQVTLVRGVWYYYGLDVWGQGTTVTVSS VL: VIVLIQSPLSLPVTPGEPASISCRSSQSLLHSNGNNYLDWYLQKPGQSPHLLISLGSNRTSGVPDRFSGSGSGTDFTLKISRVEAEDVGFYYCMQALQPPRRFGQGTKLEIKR yielded % Inhibition n=1 of 37
